Overview of recorded melting point for various compounds

Example cases with answers are listed next.
>>> print(df.to_string())
                                   compound         result
0  CCOC(=O)c1ncn2c1CN(C)C(=O)c1c(Br)cccc1-2  214 to 215 °C
1  CC(C)(c1ccc(Oc2ccc(N=C=O)cc2)cc1)c1ccc(Oc2ccc(N=C=O)cc2)cc1    68 to 69 °C
2              Cc1ccc(C(=O)c2ccc(O)cc2)cc1O  174 to 175 °C

Given the compound CC(C)CC12CCC3C4CCC(=O)C=C4CCC3C1CCC2O (stereo unspecified) , what is its reported melting point?
124 to 126 °C

Given the compound COC(=O)C1CN(C)CCC1c1ccc(F)cc1 (stereo unspecified) , what is its reported melting point?
88 to 89 °C

Given the compound Cc1ccc(-c2[nH]c(C(C)(C)C)nc2C(=O)Nc2nccs2)cc1 , what is its reported melting point?
218 °C

Given the compound Cc1nc(N2CCN(Cc3ccc(F)cc3)C2=O)sc1C(=O)NCCN1CCCC1 , what is its reported melting point?
183 to 184 °C

Given the compound CN(C)c1ccc(-c2nc3c(N[C@H]4[C@@H](C(N)=O)[C@@H]5C=C[C@H]4C5)c(Br)cnc3[nH]2)cc1 , what is its reported melting point?
264 to 265 °C

Given the compound CN(N)c1nc2ccccc2s1 , what is its reported melting point?
137 to 139 °C

Given the compound CCC(=O)SCCNC(=O)CCNC(=O)OCc1ccccc1 , what is its reported melting point?
77 to 104 °C

Given the compound NCC(c1ccc(Cl)cc1)C1CCCCCC1O (mixture of isomers) , what is its reported melting point?
92 to 93 °C

Given the compound CC(=O)C1CC2=C(CO1)C(=O)c1ccc(O)cc1C2=O (stereo unspecified) , what is its reported melting point?
169 to 170 °C

Given the compound N#Cc1cc(S(=O)(=O)c2ccc(Cl)cc2)[nH]c1-c1ccc(Cl)cc1 , what is its reported melting point?
159 to 160 °C

Given the compound CC(C)(C)OCC(NC(=O)c1ccc2c(Cl)cnc(Cl)c2c1)C(=O)OC(C)(C)C (racemic) , what is its reported melting point?
116 to 117 °C
